- tgt: T1, extracellular domain of hCD4 fused with human Fc tag (hCD4-hFc) (human, UniProt P01730 26-396)
- T1 construct: extracellular domain; also called human CD4-hFc; hCD4 (ELISA); not shown: human Fc tag
- protocol-description: ELISA, purified hybridoma antibody on coated CD4-hFc
Each entry below carries its reported EC50.
measured-endpoint: EC50

binder="33E12 murine hybridoma anti-CD4 antibody (antibody, V domains shown, Mouse antibody purified from hybridoma supernatant on Protein A and detected with goat anti-mouse IgG; also called hybridoma clone 33E12) VH: DVQLQESGPGLVKPSQSLSLTCTVTGYSITSDYAWNWIRQFPGNKLEWMGYISYSGITSYNPSLKSRFSITRDTSKNQFFLQLNSVTTEDTATYYCARLDSSGYGAMDYWGQGTSVTVSS VL: DIVLTQSPASLPVSLGQRATISCRASQSVSTSSYSYMHWYQQKPGQPPKLLIRYASNLESGVPARFSGSGSGTDFTLNIHPVEEEDTATYYCQHSWDFPLTFGAGTKLELK" measured_endpoint=EC50 reported="0.034 µg/mL"
binder="29B7 murine hybridoma anti-CD4 antibody (antibody, V domains shown, also called hybridoma clone 29B7) VH: QVQLQQSGAELAKPGASVKMSCKTSADSLNTHWMHWVKQRPGQGLEWIGYINPYTGSGEYSQKFKGKATLTADISSSTAYMQLISLTSEDSAVYYCAYDSTGAMDYWGQGTSVTVSS VL: DIKMTQSPSSMYASLGERITITCKASQDINRYLSWFQQKPGKSPKTPIYRADRSVDGVPSRFSGSGSGQDYSLTISSLEYEDMGIYYCQQYDEFPYTFGGGTKLEIK" measured_endpoint=EC50 reported="0.0334 µg/mL"
binder="11E12 murine hybridoma anti-CD4 antibody (antibody, V domains shown, also called hybridoma clone 11E12) VH: EVQLEESGPSLVKPSQTLSLTCSVTGDSITSSYWNWIRKFPGHKLEFLGYISFADTTNYNPSLKSRISITRDTSKNQFDLQLKSVTTEDTATYYCARDDFGYYAMDYWGQGISVTVSS VL: DIYVTQTTSSLSASLGDRVTIICRASQDINNYLNWYQLKPDGTLKLLIYYTSRLHSGVPSRFGGSGSGTEYSLTISNLEQEDVATYFCQQGNTLPTFGAGTKLELK" measured_endpoint=EC50 reported="0.027 µg/mL"
binder="2B6 murine hybridoma anti-CD4 antibody (antibody, V domains shown, also called hybridoma clone 2B6) VH: EVQLQESGPSLVKPSQTLSLTCSVTGDSITSGYWNWIRKFPGHKLEFLGYISFADTTNYNPSLKSRVSITRDTSKNQFDLQLKSVTTEDTATYHCARDDYGYYAMDYWGQGISVTVSS VL: DIHLTQTTSSLSASLGDRVTIICRASQDIDNYLNWYQLKPDGTLKLLIYYTSRLHSGVPSRFSGSGSGTEYSLTISNLEREDVATYFCQQGNTLPTFGAGTKLELK" measured_endpoint=EC50 reported="0.0261 µg/mL"
binder="10C2 murine hybridoma anti-CD4 antibody (antibody, V domains shown, also called hybridoma clone 10C2) VH: EVKLQQSGTELMKPGASVKISCKATGYTFSSYWIEWIKQRPGRGLEWIGEILPGSGSTNYNEEFTGRATFTADTFSNTAYMQLSSLTSEDSAVYYCARSVSASNWYFDVWGAGTTVTVSS VL: DIVMTQSPASLAVSLGQRATISCRASQSVSTSSYSYMHWYQQKPGQPPKFLIKYASNLESGVPARFSGSGSGTDFTLNIHPVEEEDTATYYCQHSWEIPPTFGGGTKLEIK" measured_endpoint=EC50 reported="0.0368 µg/mL"

All values here come from patent US11254745.
